These measurements were taken from patent US20240246946A1.

molecular target: full length mouse TREX1 (Mus musculus, UniProt Q91XB0); construct: N-terminally His-Tev tagged full length mouse TREX1; made in house; host or cells: E. coli; assay: mTREX1 Biochemical Assay (fluorescence, dsDNA substrate degradation); conditions: biochemical, read-out: mTREX1 IC50
pIC50: −log10 of the molar value.
Reported pIC50 values follow for various compounds
parameterMeasured: pIC50

>>> valuereported("CC(c1nc(C(=O)Nc2cnoc2)c(O)c(=O)n1C)C(c1cnn(C)c1)c1cc(F)ccc1Cl (single isomer, unassigned) [Example 61 D1E1]")
"8.00 to 9.00"
>>> valuereported("CC(c1nc(C(=O)Nc2cnoc2)c(O)c(=O)n1C)C(c1cnn(CC2COC2)c1)c1ccccc1Cl (single isomer, unassigned) [Example 88 D1E1]")
"8.00 to 9.00"
>>> valuereported("CC(c1nc(C(=O)Nc2cnoc2)c(O)c(=O)n1C)C(c1cnn(C(C)(C)CC#N)c1)c1cc(F)ccc1Cl (single isomer, unassigned) [Example 100 D1E1]")
"8.00 to 9.00"
>>> valuereported("COCCn1cc(C(c2cc(F)ccc2C#N)C(C)c2nc(C(=O)Nc3cnoc3)c(O)c(=O)n2C)cn1 (single isomer, unassigned) [Example 18 D2E2]")
"< 8.00"
>>> valuereported("CC(=O)N(C)c1nn(C)cc1C(c1ccccc1C#N)C(C)c1nc(C(=O)Nc2cnoc2)c(O)c(=O)n1C (single isomer, unassigned) [Example 153 D1E1]")
"< 8.00"
>>> valuereported("CC(c1nc(C(=O)Nc2cnoc2)c(O)c(=O)n1C)C(c1cnn(C(F)F)c1)c1ccccc1C#N (single isomer, unassigned) [Example 38 D2E2]")
"< 8.00"
>>> valuereported("Cc1ccn(C(c2ccccc2Cl)C(C)c2nc(C(=O)Nc3cnoc3)c(O)c(=O)n2C)n1 (single isomer, unassigned) [Example 49 D1E2]")
"< 8.00"
>>> valuereported("CC(c1nc(C(=O)Nc2cnoc2)c(O)c(=O)n1C)C(c1cnn(C(F)(F)F)c1)c1ccccc1C#N (single isomer, unassigned) [Example 151 D2E1]")
"< 8.00"
>>> valuereported("CC(c1nc(C(=O)Nc2cnoc2)c(O)c(=O)n1C)C(c1cnn(C)c1)c1ccccc1C#N (single isomer, unassigned) [Example 2 D1E1]")
"8.00 to 9.00"
>>> valuereported("CCn1ncc(C(c2ccc(F)cc2C#N)C(C)c2nc(C(=O)Nc3cnoc3)c(O)c(=O)n2C)c1C (single isomer, unassigned) [Example 65 D1E2]")
"< 8.00"
>>> valuereported("CC(c1nc(C(=O)Nc2cnoc2)c(O)c(=O)n1C)C(c1cnn(CC(C)(C)O)c1)c1cc(F)ccc1Cl (single isomer, unassigned) [Example 92 D1E1]")
"8.00 to 9.00"
>>> valuereported("CC(c1nc(C(=O)Nc2cnoc2)c(O)c(=O)n1C)C(c1cnn(C(C)C)c1)c1ccccc1C#N (single isomer, unassigned) [Example 105 D2E1]")
"< 8.00"

----------
Collected IC50 values appear next to each entry.
Biological target: full length mouse TREX1 (Mus musculus, UniProt Q91XB0)
Construct: N-terminally His-Tev tagged full length mouse TREX1; made in house; host or cells: E. coli
Sequence (Q91XB0 1-314): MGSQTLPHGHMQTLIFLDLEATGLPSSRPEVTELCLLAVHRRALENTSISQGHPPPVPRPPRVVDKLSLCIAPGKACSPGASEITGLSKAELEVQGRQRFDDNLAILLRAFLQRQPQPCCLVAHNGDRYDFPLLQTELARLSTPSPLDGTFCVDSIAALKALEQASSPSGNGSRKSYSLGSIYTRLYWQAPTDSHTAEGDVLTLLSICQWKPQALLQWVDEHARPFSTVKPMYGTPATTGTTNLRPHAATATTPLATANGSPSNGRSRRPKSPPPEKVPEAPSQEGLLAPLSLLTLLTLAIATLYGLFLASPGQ
Test: mTREX1 Biochemical Assay (fluorescence, dsDNA substrate degradation)
Conditions: biochemical, read-out: mTREX1 IC50
parameterMeasured: IC50

>>> valuereported("Cc1nn(C)cc1C(c1ccccc1C#N)C(c1nc(C(=O)Nc2cnoc2)c(O)c(=O)n1C)C(F)(F)F (single isomer, unassigned) [Example 41 D2E1]")
"> 10 nM"
>>> valuereported("CC(c1nc(C(=O)Nc2cnoc2)c(O)c(=O)n1C)C(c1ccccc1)c1cccnc1C#N (single isomer, unassigned) [Example 155 D2E1]")
"> 10 nM"
>>> valuereported("Cc1cc(C)n(C(c2ccccc2C#N)C(C)c2nc(C(=O)Nc3cnoc3)c(O)c(=O)n2C)n1 (single isomer, unassigned) [Example 137 D1E1]")
"1 to 10 nM"
>>> valuereported("CC(c1nc(C(=O)Nc2cnoc2)c(O)c(=O)n1C)C(c1cnn(C)c1)c1cc(F)ccc1C#N (single isomer, unassigned) [Example 14 D1E1]")
"> 10 nM"
>>> valuereported("CC(c1nc(C(=O)Nc2cnoc2)c(O)c(=O)n1C)C(c1ccccc1C#N)c1cn(C)nc1C#N (single isomer, unassigned) [Example 10 D2E2]")
"> 10 nM"
>>> valuereported("CC(c1nc(C(=O)Nc2cnoc2)c(O)c(=O)n1C)C(c1cnccn1)c1ccccc1C#N (single isomer, unassigned) [Example 66 D1E1]")
"< 1 nM"
>>> valuereported("COC(C)(C)Cn1cc(C(c2cc(F)ccc2Cl)C(C)c2nc(C(=O)Nc3cnoc3)c(O)c(=O)n2C)cn1 (single isomer, unassigned) [Example 93 D1E1]")
"1 to 10 nM"
>>> valuereported("CC(c1nc(C(=O)Nc2cnoc2)c(O)c(=O)n1C)C(c1ccccc1C#N)c1c(C#N)cnn1C (single isomer, unassigned) [Example 52 D1E2]")
"> 10 nM"
>>> valuereported("Cc1cnc(C(c2ccccc2Cl)C(C)c2nc(C(=O)Nc3cnoc3)c(O)c(=O)n2C)cn1 (single isomer, unassigned) [Example 116 D2E1]")
"> 10 nM"
>>> valuereported("CC(c1nc(C(=O)Nc2cnoc2)c(O)c(=O)n1C)C(c1cnn(CCN2CCN(C)CC2)c1)c1ccccc1C#N (single isomer, unassigned) [Example 32 D1E2]")
"> 10 nM"
>>> valuereported("CC(c1nc(C(=O)Nc2cnoc2)c(O)c(=O)n1C)C(c1ccccc1C#N)c1ccnn1C (single isomer, unassigned) [Example 1 D1E2]")
"> 10 nM"
>>> valuereported("Cc1nn(C)cc1C(c1cc(F)ccc1C#N)C(C)c1nc(C(=O)Nc2cnoc2)c(O)c(=O)n1C (single isomer, unassigned) [Example 57 D2E1]")
"> 10 nM"
